# study.target: UniProt P0DTD1
# measurement.conditions: 50.0 µM
Assignment: determine reported inhibition for the given compounds.
Give bare numbers, in %.

Please report inhibition for every entry that follows.
1. CCN(CC1COc2ccccc2O1)C(=O)c1cc(=O)[nH]c2ccc([N+](=O)[O-])cc12 (stereo unspecified)
2. O=C(c1cc(=O)[nH]c2ccccc12)N1CCN(c2cccc(Cl)c2)CC1
3. CC(=O)N1CCN(Cc2cccs2)CC1
4. COc1ccccc1OCCNC(=O)c1cc(=O)[nH]c2cccc(C)c12
5. Cc1c(C(=O)NC(CC(=O)O)c2cccc(Cl)c2)cnc2ccccc12 (stereo unspecified)
6. N#Cc1ccc(O)c(NC(=O)Cc2cccnc2)c1

[0, 65.7, 95.7, 89.7, 8.52, 0]

Dear colleague, could you send me inhibition for each of the items below? Thanks.
1. O=S(=O)(Cc1ccc(F)cc1)Nc1cccnc1
2. Cc1ccncc1CC(=O)Nc1cccc(Cl)c1
3. COc1ccc2c(=O)c(O)c(-c3ccc(OCc4ccccc4)c(OCc4ccccc4)c3)oc2c1
4. Cc1ccncc1-c1ccc(S(N)(=O)=O)cc1
5. CC1CN(Cc2ccccc2NC(=O)NCc2cnsc2)CC(C)O1 (stereo unspecified)

-5.13
88.6
14.1
-2.15
1.33
